# SUBJECT_OF_TEST: Human T-type calcium channel (Cav 3.2) (Homo sapiens)
# Construct: Edward Perez-Reyes, University of Virginia, USA
# ASSAY_PROTOCOL: Calcium Influx Inhibition Assay
# MEASUREMENT_PARAMETERS: Human T-type calcium channel (Cav 3.2) expressing HEK293 cells, FLIPR Calcium 4 fluorescence
We label by threshold. Values of IC50 strictly beneath 40 nM are fulfilled. Values of 40 nM and up are not fulfilled.

A selection of reference data follows.
Hello, I'm reviewing records and need to know if IC50 of O=c1cc(C(F)(F)F)ccn1Cn1cnc(N2CCN(c3ccc(F)cc3)CC2)nc1=O is below 40 nM. Could you check? not fulfilled

Hello, I'm reviewing records and need to know if IC50 of Cc1nc(N2CCC(n3cc(Br)cn3)CC2)nc(=O)n1Cc1ccc(C(F)(F)F)s1 is below 40 nM. Could you check? not fulfilled

Hello, I'm reviewing records and need to know if IC50 of O=c1nc(N[C@H]2C[C@@H](c3ccc(F)cc3)C2)ncn1Cc1ccc(C(F)(F)F)s1 is below 40 nM. Could you check? fulfilled

Hello, I'm reviewing records and need to know if IC50 of Cc1nc(N2CC=C(c3ccc(F)cc3)C(CO)C2)nc(=O)n1Cc1ccc(C(F)(F)F)s1 (centres unmarked) is below 40 nM. Could you check? not fulfilled

Hello, I'm reviewing records and need to know if IC50 of CCCCOc1nc(N2CCN(c3ccc(F)cc3)CC2)nc(=O)n1Cc1ccc(Cl)cc1 is below 40 nM. Could you check? not fulfilled

More entries:
Hello, I'm reviewing records and need to know if IC50 of CCCCCCOc1ccc(Cn2cnc(N3CCN(c4ccc(F)cc4)CC3)nc2=O)cc1 is below 40 nM. Could you check? not fulfilled

Hello, I'm reviewing records and need to know if IC50 of CC(c1ccc(C(F)(F)F)s1)n1cnc(N2CC=C(c3ccc(F)cc3)C(O)C2)nc1=O (centres unmarked) is below 40 nM. Could you check? not fulfilled

Hello, I'm reviewing records and need to know if IC50 of C[C@@H]1CN(c2ccc(F)cc2)CCN1c1ncn(Cc2ccc(Cl)cc2)c(=O)n1 is below 40 nM. Could you check? not fulfilled

Hello, I'm reviewing records and need to know if IC50 of O=c1nc(NC2CCC3(c4ccc(F)cc4)CC23)ncn1Cc1ccc(Cl)cc1 (centres unmarked) is below 40 nM. Could you check? fulfilled

Hello, I'm reviewing records and need to know if IC50 of CCOC(=O)c1cc(C(C)(C)C)n(Cn2cnc(N3CCN(c4ccc(F)cc4)CC3)nc2=O)n1 is below 40 nM. Could you check? not fulfilled

* * *

# SUBJECT_OF_TEST: Human T-type calcium channel (Cav 3.2) (Homo sapiens, UniProt O95180)
# Construct: Edward Perez-Reyes, University of Virginia, USA
# Sequence (O95180 whole entry): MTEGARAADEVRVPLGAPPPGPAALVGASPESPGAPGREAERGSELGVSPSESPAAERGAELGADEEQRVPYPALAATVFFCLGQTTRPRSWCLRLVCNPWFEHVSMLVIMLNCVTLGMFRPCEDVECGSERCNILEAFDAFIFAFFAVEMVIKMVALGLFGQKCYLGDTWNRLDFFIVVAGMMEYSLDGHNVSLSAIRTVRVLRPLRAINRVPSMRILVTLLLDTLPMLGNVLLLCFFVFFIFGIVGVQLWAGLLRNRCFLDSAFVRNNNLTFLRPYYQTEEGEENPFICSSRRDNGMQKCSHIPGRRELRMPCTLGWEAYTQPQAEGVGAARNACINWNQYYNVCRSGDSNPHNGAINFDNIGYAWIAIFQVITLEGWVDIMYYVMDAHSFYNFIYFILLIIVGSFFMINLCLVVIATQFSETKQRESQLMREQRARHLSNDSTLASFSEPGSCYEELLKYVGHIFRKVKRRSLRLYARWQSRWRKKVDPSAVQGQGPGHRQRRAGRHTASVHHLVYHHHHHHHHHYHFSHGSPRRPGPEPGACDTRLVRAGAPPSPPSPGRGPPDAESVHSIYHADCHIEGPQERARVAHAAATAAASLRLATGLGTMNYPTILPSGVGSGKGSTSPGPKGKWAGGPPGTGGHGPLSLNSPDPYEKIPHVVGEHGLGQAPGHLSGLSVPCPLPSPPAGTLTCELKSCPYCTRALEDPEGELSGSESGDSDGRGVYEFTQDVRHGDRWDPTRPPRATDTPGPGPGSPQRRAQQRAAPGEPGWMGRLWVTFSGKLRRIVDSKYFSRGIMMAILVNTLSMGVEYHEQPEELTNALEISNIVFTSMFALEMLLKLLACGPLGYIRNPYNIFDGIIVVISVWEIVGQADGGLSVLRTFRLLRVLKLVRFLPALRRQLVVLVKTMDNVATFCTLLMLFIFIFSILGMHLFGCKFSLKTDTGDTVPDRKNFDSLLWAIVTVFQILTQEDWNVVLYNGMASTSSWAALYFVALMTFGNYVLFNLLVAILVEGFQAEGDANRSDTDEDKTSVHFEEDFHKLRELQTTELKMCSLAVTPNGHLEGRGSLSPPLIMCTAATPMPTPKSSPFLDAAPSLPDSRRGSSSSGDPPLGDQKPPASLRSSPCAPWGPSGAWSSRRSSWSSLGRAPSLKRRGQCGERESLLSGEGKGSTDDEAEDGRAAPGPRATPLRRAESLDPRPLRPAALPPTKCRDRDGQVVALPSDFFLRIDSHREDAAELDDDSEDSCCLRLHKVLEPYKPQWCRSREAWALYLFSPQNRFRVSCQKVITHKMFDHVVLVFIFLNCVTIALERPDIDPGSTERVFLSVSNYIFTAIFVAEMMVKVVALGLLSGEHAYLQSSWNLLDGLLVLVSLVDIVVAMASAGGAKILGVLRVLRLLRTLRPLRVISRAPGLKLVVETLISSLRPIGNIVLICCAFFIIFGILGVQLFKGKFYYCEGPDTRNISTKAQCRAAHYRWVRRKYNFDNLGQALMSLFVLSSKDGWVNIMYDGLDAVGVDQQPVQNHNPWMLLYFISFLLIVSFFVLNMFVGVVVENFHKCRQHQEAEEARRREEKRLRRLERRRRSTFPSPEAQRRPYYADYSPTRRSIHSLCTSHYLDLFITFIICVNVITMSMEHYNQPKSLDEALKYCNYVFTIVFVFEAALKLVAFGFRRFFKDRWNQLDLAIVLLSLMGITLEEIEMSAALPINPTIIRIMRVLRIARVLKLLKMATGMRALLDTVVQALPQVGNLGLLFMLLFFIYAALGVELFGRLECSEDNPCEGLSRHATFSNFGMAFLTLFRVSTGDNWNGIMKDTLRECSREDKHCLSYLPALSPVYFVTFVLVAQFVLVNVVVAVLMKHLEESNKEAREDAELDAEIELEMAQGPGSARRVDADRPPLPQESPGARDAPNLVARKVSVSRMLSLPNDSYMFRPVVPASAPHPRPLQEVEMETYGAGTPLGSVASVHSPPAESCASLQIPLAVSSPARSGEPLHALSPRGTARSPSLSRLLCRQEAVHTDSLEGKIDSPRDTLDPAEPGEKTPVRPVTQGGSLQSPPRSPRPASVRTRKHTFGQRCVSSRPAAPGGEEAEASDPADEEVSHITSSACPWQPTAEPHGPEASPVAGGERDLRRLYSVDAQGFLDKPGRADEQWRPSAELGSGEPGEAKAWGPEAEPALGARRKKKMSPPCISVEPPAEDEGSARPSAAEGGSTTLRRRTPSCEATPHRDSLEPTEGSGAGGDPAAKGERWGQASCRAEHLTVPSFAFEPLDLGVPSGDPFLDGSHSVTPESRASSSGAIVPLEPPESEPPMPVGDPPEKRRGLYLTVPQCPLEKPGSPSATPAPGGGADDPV
# ASSAY_PROTOCOL: Calcium Influx Inhibition Assay
# MEASUREMENT_PARAMETERS: Human T-type calcium channel (Cav 3.2) expressing HEK293 cells, FLIPR Calcium 4 fluorescence
pIC50: −log10 of the molar value.
Binary call on pIC50: met from 8 upward, not met beneath that.

A selection of reference data follows.
Could you please find out whether O=c1nc(N2CC=C(c3ccc(Cl)cn3)CC2)ncn1Cc1ccc(C(F)(F)F)s1 [compound 256] has pIC50 that meets 8 or exceeds it? not met

Could you please find out whether O=c1nc(N2CCN(c3cc(F)c(F)c(F)c3)CC2)ncn1Cn1ccc(C(F)(F)F)n1 [compound 58] has pIC50 that meets 8 or exceeds it? not met

Could you please find out whether COc1nc(C2=CCN(c3ncn(Cc4ccc(C(F)(F)F)s4)c(=O)n3)C[C@@H]2O)ccc1Cl [compound 329] has pIC50 that meets 8 or exceeds it? met

Could you please find out whether O=c1nc(N2CCN(c3ccc(F)cc3)CC2)ncn1Cc1ccc(C(F)(F)F)s1 [compound 25] has pIC50 that meets 8 or exceeds it? not met

More entries:
Could you please find out whether Cc1nc(N2CC=C(c3ccc(F)cc3)[C@@H](O)C2)nc(=O)n1Cc1ccc(OS(=O)(=O)C(F)(F)F)cc1 [compound 213] has pIC50 that meets 8 or exceeds it? met

Could you please find out whether Cc1nc(N2CCN(C34CC5CC(CC(C5)C3)C4)CC2)nc(=O)n1Cc1ccc(C(F)(F)F)s1 [compound 382] has pIC50 that meets 8 or exceeds it? not met

Could you please find out whether Cc1nc(N[C@H]2C[C@@H](c3ccc(F)cc3)C2)nc(=O)n1Cc1ccc(C(F)(F)F)s1 [compound 360] has pIC50 that meets 8 or exceeds it? not met

* * *

What pIC50 was measured for each of the following?
# SUBJECT_OF_TEST: Human T-type calcium channel (Cav 3.2) (Homo sapiens)
# Construct: Edward Perez-Reyes, University of Virginia, USA
# ASSAY_PROTOCOL: Calcium Influx Inhibition Assay
# MEASUREMENT_PARAMETERS: Human T-type calcium channel (Cav 3.2) expressing HEK293 cells, FLIPR Calcium 4 fluorescence
One number for each entry, as −log10 of the molar value.

For each of the items listed, what is its pIC50?
1. CCCc1nc(N2CC=C(c3ccc(F)cc3)CC2)nc(=O)n1Cc1ccc(C(F)(F)F)s1
2. O=c1nc(N2CCN(c3ccc(Cl)cc3)CC2)ncn1Cn1ccc(C(F)(F)F)n1
3. Cc1nc(Nc2nc(-c3ccc(F)c(F)c3)cs2)nc(=O)n1Cc1ccc(C(F)(F)F)s1
4. Cc1cc(N2CCN(c3nc(C)n(Cc4ccc(C(F)(F)F)s4)c(=O)n3)CC2)cs1

7.21
7.12
7.05
7.89

* * *

# SUBJECT_OF_TEST: Human T-type calcium channel (Cav 3.2) (Homo sapiens, UniProt O95180)
# Construct: Edward Perez-Reyes, University of Virginia, USA
# ASSAY_PROTOCOL: Calcium Influx Inhibition Assay
# MEASUREMENT_PARAMETERS: Human T-type calcium channel (Cav 3.2) expressing HEK293 cells, FLIPR Calcium 4 fluorescence
What pIC50 was measured for each of the following?
One number for each entry, as −log10 of the molar value.

Observed pIC50 on Human T-type calcium channel (Cav 3.2) (Homo sapiens, UniProt O95180) for O=c1nc(N2CCN(c3ccc(F)cc3)CC2)ncn1Cc1ccc(C(F)(F)F)o1 [compound 21] , please. 7.21

Observed pIC50 on Human T-type calcium channel (Cav 3.2) (Homo sapiens, UniProt O95180) for CC(=O)OC1CN(c2ncn(Cc3ccc(C(F)(F)F)s3)c(=O)n2)CC=C1c1ccc(F)cc1 (stereo not drawn) [compound 476] , please. 7.21

# input for lookup
Observed pIC50 on Human T-type calcium channel (Cav 3.2) (Homo sapiens, UniProt O95180) for Cc1cccc(C2=CCN(c3ncn(Cc4cc5c(s4)CCCC5)c(=O)n3)C[C@@H]2O)n1 [compound 430] , please. 6.80

* * *

What IC50 was measured for each of the following?
# SUBJECT_OF_TEST: Human T-type calcium channel (Cav 3.2) (Homo sapiens)
# Construct: Edward Perez-Reyes, University of Virginia, USA
# ASSAY_PROTOCOL: Calcium Influx Inhibition Assay
# MEASUREMENT_PARAMETERS: Human T-type calcium channel (Cav 3.2) expressing HEK293 cells, FLIPR Calcium 4 fluorescence
Numbers only, in nM.

Use the examples below as a reference point.
Any idea what its IC50 is? The compound is O=c1nc(N2CCN(c3ccc(F)cc3)CC2)nc(CO)n1Cc1ccc(C(F)(F)F)s1 [458b] 53

Any idea what its IC50 is? The compound is O=c1nc(N2CC=C(c3ccc(F)cc3)C(O)C2)ncn1Cc1ccc(Cl)cc1 (stereo not shown) 19

Any idea what its IC50 is? The compound is O=c1nc(N2CC3C(C2)C3c2ccc(F)cc2)ncn1Cc1ccc(C(F)(F)F)s1 (stereo not shown) 160

Any idea what its IC50 is? The compound is Cc1csc(C2=CCN(c3ncn(Cc4ccc(C(F)(F)F)s4)c(=O)n3)C[C@@H]2O)c1 4

Any idea what its IC50 is? The compound is Cc1cc(Cn2cnc(N3CCN(c4ccc(F)cc4)CC3)nc2=O)sc1Br 51

Any idea what its IC50 is? The compound is Cc1csc(C2=CCN(c3nc(C)n(Cc4ccc(C(F)(F)F)s4)c(=O)n3)C[C@@H]2O)c1 1.5

For each of the items listed, what is its IC50?
1. O=c1nc(N[C@@H]2CCN(c3ccc(F)cc3)C2)ncn1Cc1ccc(Cl)cc1
2. NC1CN(c2ncn(Cc3ccc(C(F)(F)F)s3)c(=O)n2)CC=C1c1ccc(F)cc1 (stereo not shown)
3. O=c1nc(N2CC=C(c3ccc(Cl)cc3)CC2)ncn1Cc1ccc(C(F)(F)F)s1
4. O=c1nc(N2CC=C(c3ccc(F)cc3)[C@H](O)C2)ncn1Cc1ccc(C(F)(F)F)s1

1. 47
2. 3.6
3. 24
4. 2.3
